Sourced from patent US12391697B2

subject-of-test: BTK (Homo sapiens (Human), UniProt Q06187)
Sequence (Q06187 whole entry): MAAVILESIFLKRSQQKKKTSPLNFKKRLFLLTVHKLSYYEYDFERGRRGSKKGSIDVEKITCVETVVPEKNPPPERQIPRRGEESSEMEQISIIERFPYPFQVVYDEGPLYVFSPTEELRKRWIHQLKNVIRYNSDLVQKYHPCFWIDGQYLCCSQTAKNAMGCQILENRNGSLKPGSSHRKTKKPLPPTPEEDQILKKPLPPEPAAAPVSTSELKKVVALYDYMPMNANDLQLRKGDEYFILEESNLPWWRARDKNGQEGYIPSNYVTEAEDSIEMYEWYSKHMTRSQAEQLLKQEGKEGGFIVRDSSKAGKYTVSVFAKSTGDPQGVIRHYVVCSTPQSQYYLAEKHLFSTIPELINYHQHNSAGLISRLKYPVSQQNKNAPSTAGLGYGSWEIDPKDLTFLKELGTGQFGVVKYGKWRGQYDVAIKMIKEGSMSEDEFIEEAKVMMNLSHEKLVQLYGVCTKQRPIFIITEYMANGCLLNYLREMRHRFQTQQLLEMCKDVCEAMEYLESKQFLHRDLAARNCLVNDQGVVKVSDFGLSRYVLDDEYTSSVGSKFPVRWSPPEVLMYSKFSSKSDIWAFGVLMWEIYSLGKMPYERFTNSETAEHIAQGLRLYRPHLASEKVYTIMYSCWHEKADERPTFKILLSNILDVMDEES
experimental-details: In Vitro BTK Kinase Assay: Btk-PolyGAT-LS Assay
Type: biochemical
experimental-setup: active BTK enzyme 0.25 nM, ATP 10 μM, polyGAT 100 nM, 30 minutes
Structures can show the parent of a compound that is named as a salt.
We begin with a simple list: items and their reported IC50.

| compound | IC50 |
| --- | --- |
| CC(C)(C)n1cc(C(=O)NCc2ccc(-c3ncnn4cc(N5CCOCC5)cc34)cc2Cl)cn1 [Example 160] | ≤ 1 nM |
| Cc1cc(-c2ncnn3cc(N4CCN(C5COC5)CC4)cc23)ccc1CNC(=O)c1noc(C(C)(C)C)n1 [Example 32, trifluoroacetate] | ≤ 1 nM |
| Cc1cc(-c2ncnn3cc(-c4ncccn4)cc23)ccc1CNC(=O)c1noc(C(C)(C)C)n1 [Example 68, hydrochloride] | ≤ 1 nM |
| Cc1cc(-c2ncnn3cc(-c4cnn(C)c4C)cc23)ccc1CNC(=O)c1nnn(C(C)(C)C)n1 [Example 129] | ≤ 1 nM |

----------
subject-of-test: BTK (Homo sapiens (Human))
pIC50: −log10 of the molar value.

| smiles | pIC50 |
| --- | --- |
| Cc1cc(-c2ccnc3cc(N4CCOCC4)nn23)ccc1CNC(=O)c1noc(C(C)(C)C)n1 | 8.00 to 9.00 |
| COCCn1cc(-c2cc3c(-c4ccc(CNC(=O)c5noc(C(C)(C)C)n5)c(C)c4)ncnn3c2)cn1 | ≥ 9.00 |
| CC(C)(C)c1noc(C(=O)NCc2ccc(-c3ncnn4cc(N5CCOCC5)cc34)cc2Cl)n1 | ≥ 9.00 |
| Cc1cc(-c2cc3c(-c4ccc(CNC(=O)c5nc(C(C)(C)C)no5)c(C)c4)ncnn3c2)cnn1 | ≥ 9.00 |

----------
pIC50: −log10 of the molar value.
// each record: one item and its pIC50 for BTK (Homo sapiens (Human), UniProt Q06187)

| compound | subject-of-test | pIC50 |
| --- | --- | --- |
| Cc1cc(-c2ncnn3cc(N4CCN(C)[C@H](C)C4)cc23)ccc1CNC(=O)c1nc(C(C)(C)C)no1 (single isomer, unassigned) [Example 27] | BTK (Homo sapiens (Human), UniProt Q06187) | ≥ 9.00 |
| Cc1cc(-c2ncnn3cc(C4=CCSCC4)cc23)ccc1CNC(=O)c1noc(C(C)(C)C)n1 [Example 101] | BTK (Homo sapiens (Human), UniProt Q06187) | ≥ 9.00 |
| Cc1cc(-c2cc3c(-c4ccc(CNC(=O)c5noc(C(C)(C)C)n5)c(C)c4)ncnn3c2)ccn1 [Example 227] | BTK (Homo sapiens (Human), UniProt Q06187) | ≥ 9.00 |
| Cc1c([C@@H](C)NC(=O)c2noc(C(C)(C)C)n2)ccc(-c2ncnn3cc(N4CCOCC4)cc23)c1F [Example 31] | BTK (Homo sapiens (Human), UniProt Q06187) | ≥ 9.00 |
| Cc1cc(-c2ncnn3cc(N4CCN(C5COC5)C[C@@H]4C)cc23)ccc1CNC(=O)c1noc(C(C)(C)C)n1 [Example 75] | BTK (Homo sapiens (Human), UniProt Q06187) | 8.00 to 9.00 |
| Cc1cc(-c2ncnn3cc(-c4cnn(CC(F)F)c4)cc23)ccc1CNC(=O)c1cnn(C(C)(C)C)c1 [Example 145] | BTK (Homo sapiens (Human), UniProt Q06187) | ≥ 9.00 |
| CC(C)(C)c1nc(C(=O)NCc2ccc(-c3ncnn4cccc34)cc2Cl)no1 [Example 178] | BTK (Homo sapiens (Human), UniProt Q06187) | 8.00 to 9.00 |

----------
We begin with a simple list: items and their reported IC50.
subject-of-test: BTK (Homo sapiens (Human), UniProt Q06187)

| molecule | IC50 |
| --- | --- |
| Cc1c(CNC(=O)c2nc(C(C)(C)C)no2)ccc(-c2ccnc3cc(N4CCOCC4)nn23)c1F | 1 to 10 nM |
| Cc1cc(-c2ncnn3cc(-c4cnn(C)c4)cc23)ccc1CNC(=O)c1nnc(C(C)(C)C(F)F)o1 | ≤ 1 nM |
| CC(C)(C)c1nnc(C(=O)NCc2ccc(-c3ncnn4cc(N5CCOCC5)cc34)cc2C(F)F)o1 | 1 to 10 nM |
| Cn1cc(-c2cc3c(-c4ccc(CNC(=O)c5cn(C(C)(C)C)nn5)c(C(F)F)c4F)ncnn3c2)cn1 | 1 to 10 nM |
| Cc1cc(-c2ncnn3cc(-c4cncnc4)cc23)ccc1CNC(=O)c1noc(C(C)(C)C)n1 | ≤ 1 nM |
| CC(C)(C)n1cc(C(=O)NCc2ccc(-c3ncnn4cc(N5CCOCC5)cc34)c(F)c2Cl)cn1 | ≤ 1 nM |
| Cc1c(CNC(=O)c2nc(C(C)(C)C)no2)ccc(-c2ncnn3cc(N4CCN(C)[C@@H](C)C4)cc23)c1F (single isomer, unassigned) | ≤ 1 nM |
| Cc1cc(-c2ccnn3cnnc23)ccc1CNC(=O)c1noc(C(C)(C)C)n1 | > 10 nM |
| Cc1cc(-c2ncnn3cc(N4CCN(C)[C@@H](C)C4)cc23)ccc1CNC(=O)c1nc(C(C)(C)C)no1 (single isomer, unassigned) | ≤ 1 nM |
| CC(C)(C)c1noc(C(=O)NCc2cc(F)c(-c3ncnn4cccc34)cc2Cl)n1 | 1 to 10 nM |
| COc1cc(-c2ncnn3cc(-c4cnn(C)c4)cc23)ccc1CNC(=O)c1cn(C(C)(C)C)nn1 | 1 to 10 nM |
| CC(C)(C)c1nnc(C(=O)NCc2ccc(-c3ncnn4cc(N5CCOCC5)cc34)cc2Cl)o1 | 1 to 10 nM |
| CC(C)(C)n1cc(C(=O)NCc2ccc(-c3ncnn4cc(N5CCOCC5)cc34)cc2C(F)(F)F)nn1 | ≤ 1 nM |
| CC(C)(C)c1nnc(C(=O)NCc2ccc(-c3ncnn4cc(N5CCOCC5)cc34)c(F)c2C2CC2)o1 | 1 to 10 nM |
| Cn1cc(-c2cc3c(-c4ccc(CNC(=O)c5nnc(C(C)(C)C)o5)c(C(F)F)c4)ncnn3c2)cn1 | ≤ 1 nM |

----------
// each record: one item and its IC50 for BTK (Homo sapiens (Human))
Where a name gives a salt, the structure may show the parent alone.
quantity-name: IC50

| compound | result |
| --- | --- |
| Cc1cc(-c2ncnn3cc(N4C[C@H](C)O[C@@H](C)C4)cc23)ccc1CNC(=O)c1noc(C(C)(C)C)n1 (single isomer, unassigned) [Example 44, hydrochloride] | ≤ 1 nM |
| Cc1c(CNC(=O)c2noc(C(C)(C)C)n2)ccc(-c2ncnn3cccc23)c1F | ≤ 1 nM |
| Cc1cc(-c2ncnn3cc(N4CCO[C@@H](C)C4)cc23)ccc1CNC(=O)c1noc(C(C)(C)C)n1 (single isomer, unassigned) | ≤ 1 nM |

----------
// each record: one item and its IC50 for BTK (Homo sapiens (Human))
Counter-ions that a name gives are not always drawn.
quantity-name: IC50

| molecule | subject-of-test | result |
| --- | --- | --- |
| Cc1c(CNC(=O)c2noc(C(C)(C)CF)n2)ccc(-c2ncnn3cc(-c4cnn(C)c4)cc23)c1F | BTK (Homo sapiens (Human)) | ≤ 1 nM |
| Cc1cc(-c2ncnn3cc(C4COC4)cc23)ccc1CNC(=O)c1noc(C(C)(C)C)n1 [Example 71, trifluoroacetate] | BTK (Homo sapiens (Human)) | > 10 nM |
| Cc1cc(-c2ncnn3ccnc23)ccc1CNC(=O)c1noc(C(C)(C)C)n1 | BTK (Homo sapiens (Human)) | 1 to 10 nM |
| CC(C)(C)c1nc(C(=O)NCc2cc(F)c(-c3ncnn4cc(N5CCOCC5)cc34)cc2Cl)no1 | BTK (Homo sapiens (Human)) | ≤ 1 nM |
| Cc1cc(-c2ncnn3cc(C(=O)N4CCN(C)CC4)cc23)ccc1CNC(=O)c1noc(C(C)(C)C)n1 | BTK (Homo sapiens (Human)) | > 10 nM |
| COc1cc(-c2ncnn3cc(-c4cnn(C)c4)cc23)ccc1CNC(=O)c1noc(C(C)(C)C)n1 [Example 35, hydrochloride] | BTK (Homo sapiens (Human)) | ≤ 1 nM |
| Cc1cc(-c2ncnn3cc(-c4cnn(C)c4)cc23)ccc1CNC(=O)c1noc(C(C)(C)C)n1 | BTK (Homo sapiens (Human)) | ≤ 1 nM |
| Cc1cc(-c2ncnn3cc(-c4ccncc4)cc23)ccc1CNC(=O)c1noc(C(C)(C)C)n1 | BTK (Homo sapiens (Human)) | ≤ 1 nM |
| Cc1cc(-c2c(C#N)cnn3cccc23)ccc1CNC(=O)c1noc(C(C)(C)C)n1 | BTK (Homo sapiens (Human)) | > 10 nM |
| Cc1cc(-c2ncnn3cc(-c4cnsc4)cc23)ccc1CNC(=O)c1nc(C(C)(C)C)no1 | BTK (Homo sapiens (Human)) | ≤ 1 nM |
| Cc1cc(-c2ncnn3cc(-c4ccc(C#N)cc4)cc23)ccc1CNC(=O)c1noc(C(C)(C)C)n1 | BTK (Homo sapiens (Human)) | ≤ 1 nM |
| CC(C)(C)c1nc(C(=O)NCc2ccc(-c3ncnn4cc(N5CCOCC5)cc34)cc2C2CC2)no1 | BTK (Homo sapiens (Human)) | ≤ 1 nM |
| CC(C)(C)c1nc(C(=O)NCc2ccc(-c3ncnn4cc(N5CCOCC5)cc34)cc2C(F)(F)F)no1 [Example 34, hydrochloride] | BTK (Homo sapiens (Human)) | ≤ 1 nM |
| Cc1c(CNC(=O)c2nnc(C(C)(C)C)o2)ccc(-c2ncnn3cc(N4CCOCC4)cc23)c1F | BTK (Homo sapiens (Human)) | 1 to 10 nM |
| Cn1cc(-c2cc3c(-c4ccc(CNC(=O)c5cn(C(C)(C)C)nn5)c(C(F)F)c4)ncnn3c2)cn1 [Example 64, hydrochloride] | BTK (Homo sapiens (Human)) | ≤ 1 nM |
